Provenance of the data: patent US10562912B2

System: LNCaP
Test: Cell growth inhibition assay, prostate cancer cell line LNCaP (medium with 10 ng/mL IL-6)
Type: cell-based
Details: Homo sapiens, medium supplemented with 10 ng/mL of IL-6, 10,000 cells/well
quantity.measured: IC50 (µM)
I only need the number, in µM, no unit after it.

### Prompt State its IC50 on LNCaP: CS(=O)(=O)Nc1ccc2cc(C(=O)Nc3cccc(-c4ccc(F)cc4F)c3)[nH]c2c1
### Response 1.01

### Prompt State its IC50 on LNCaP: COc1cc(NC(=O)c2cc3cc(NS(C)(=O)=O)ccc3s2)cc(-c2ccc(F)cc2F)c1
### Response 0.37

### Prompt State its IC50 on LNCaP: CN(c1cc(Cl)cc(NC(=O)c2cc3cc(NS(C)(=O)=O)ccc3s2)c1)c1ccc(F)cc1F
### Response 0.15

Turning now to a further compound:
### Prompt State its IC50 on LNCaP: CC(C)Oc1cc(OC(F)(F)F)cc(C(C)(C)c2cc(Cl)cc(NC(=O)c3cc4cc(NS(=O)(=O)CCN(C)C)ccc4s3)c2)c1
### Response 0.22

---

Tested on: DU-145
Assay: Cell growth inhibition assay, prostate cancer cell line DU-145
Type: cell-based
Conditions: Homo sapiens, DU-145 prostate cancer cell line
Entries are grouped by IC50 into these classes: zone 1: < 0.04 µM; zone 2: ≥ 0.04 µM and < 0.1 µM; zone 3: ≥ 0.1 µM

Use these answered entries as a reference point.
### Prompt Any idea which band CC#Cc1cc(OC(F)(F)F)cc(C(C)(C)c2cc(Cl)cc(NC(=O)c3cc4cc(NS(C)(=O)=O)ccc4s3)c2)c1 is in?
### Response zone 1

### Prompt Any idea which band CS(=O)(=O)Nc1ccc2sc(C(=O)Nc3cc(Cl)cc(Oc4ccc(F)cc4)c3)cc2c1 is in?
### Response zone 2

### Prompt Any idea which band CC(C)Oc1cc(Cl)cc(C(C)(C)c2cc(Cl)cc(NC(=O)c3cc4cc(NS(C)(=O)=O)ccc4s3)c2)c1 is in?
### Response zone 1

### Prompt Any idea which band C=CS(=O)(=O)Nc1ccc2sc(C(=O)Nc3cc(Cl)cc(C(C)(C)c4cc(OC(C)C)cc(OC(F)(F)F)c4)c3)cc2c1 is in?
### Response zone 3

***
### Prompt Any idea which band CCCOc1cc(OC(F)(F)F)cc(C(C)(C)c2cc(Cl)cc(NC(=O)c3cc4cc(NS(C)(=O)=O)ccc4s3)c2)c1 is in?
### Response zone 1

### Prompt Any idea which band Cc1ccc(C(C)(C)c2cc(Cl)cc(NC(=O)c3cc4cc(NS(C)(=O)=O)c(Cl)cc4s3)c2)s1 is in?
### Response zone 1

### Prompt Any idea which band CC(C)Oc1cc(OC(F)(F)F)cc(C(C)(C)c2cc(Cl)cc(NC(=O)c3cc4cc(NS(C)(=O)=O)cnc4s3)c2)c1 is in?
### Response zone 2

### Prompt Any idea which band COc1cc(OC(F)(F)F)cc(-c2cc(Cl)cc(NC(=O)c3cc4cc(NS(=O)(=O)C5CCOC5)ccc4s3)c2)c1 (centres unmarked) is in?
### Response zone 3

### Prompt Any idea which band CC(C)Oc1cc(OC(F)(F)F)cc(C2(c3cc(Cl)cc(NC(=O)c4cc5cc(NS(C)(=O)=O)ccc5s4)c3)CC2)c1 is in?
### Response zone 1

### Prompt Any idea which band CS(=O)(=O)Nc1ccc2sc(C(=O)Nc3cc(Cl)cc(Oc4cc(Cl)cc(OC(F)(F)F)c4)c3)cc2c1 is in?
### Response zone 2

### Prompt Any idea which band CC(C)Oc1cc(N2CCN(C)CC2)cc(C(C)(C)c2cc(Cl)cc(NC(=O)c3cc4cc(NS(C)(=O)=O)ccc4s3)c2)c1 is in?
### Response zone 3

### Prompt Any idea which band Cc1noc(C)c1S(=O)(=O)Nc1ccc2sc(C(=O)Nc3cc(Cl)cc(C(C)(C)c4cc(OC(C)C)cc(OC(F)(F)F)c4)c3)cc2c1 is in?
### Response zone 3

### Prompt Any idea which band CC(C)Oc1cc(N2CC[N+](C)([O-])CC2)cc(C(C)(C)c2cc(Cl)cc(NC(=O)c3cc4cc(NS(C)(=O)=O)ccc4s3)c2)c1 is in?
### Response zone 3

### Prompt Any idea which band CC(C)(c1ccncc1)c1cc(Cl)cc(NC(=O)c2cc3cc(NS(C)(=O)=O)ccc3s2)c1 is in?
### Response zone 3

---

Test system: DU-145
Test: Cell growth inhibition assay, prostate cancer cell line DU-145
Type: cell-based
Settings: Homo sapiens, DU-145 prostate cancer cell line
Entries are grouped by IC50 into these classes: lower segment: < 0.06 µM; middle segment: ≥ 0.06 µM and < 0.2 µM; upper segment: ≥ 0.2 µM

Use these answered entries as a reference point.
### Prompt Any idea which band COc1cc2cc(C(=O)Nc3cc(Br)cc(C(C)(C)c4ccc(F)cc4)c3)[nH]c2cc1NS(C)(=O)=O [Example 19] is in?
### Response middle segment

### Prompt Any idea which band CC(C)(c1cc(Cl)cc(NC(=O)c2cc3cc(NS(C)(=O)=O)c(Cl)cc3s2)c1)c1ccc(C#N)s1 [Example 186] is in?
### Response lower segment

### Prompt Any idea which band CS(=O)(=O)Nc1ccc2sc(C(=O)Nc3cc(Cl)cc(Oc4cc(F)cc(F)c4)c3)cc2c1 [Example 463] is in?
### Response middle segment

***
### Prompt Any idea which band COc1cc(OC(F)(F)F)cc(-c2cc(Cl)cc(NC(=O)c3cc4cc(NS(C)(=O)=O)ccc4s3)c2)c1 [Example 324] is in?
### Response upper segment

### Prompt Any idea which band CC(C)Oc1cc(CN2CCC3(CC2)COC3)cc(C(C)(C)c2cc(Cl)cc(NC(=O)c3cc4cc(NS(C)(=O)=O)ccc4s3)c2)c1 [Example 134] is in?
### Response middle segment

### Prompt Any idea which band CC(C)Oc1cc(N2CCCC2)cc(C(C)(C)c2cc(Cl)cc(NC(=O)c3cc4cc(NS(C)(=O)=O)ccc4s3)c2)c1 [Example 146] is in?
### Response lower segment

### Prompt Any idea which band Cc1cc(OC(C)C)cc(C(C)(C)c2cc(Cl)cc(NC(=O)c3cc4c(Br)c(NS(C)(=O)=O)ccc4s3)c2)c1 [Example 488] is in?
### Response upper segment

### Prompt Any idea which band COc1cc(OC(F)(F)F)cc(C(C)(C)c2cc(Br)cc(NC(=O)c3cc4cc(NS(C)(=O)=O)cnc4s3)c2)c1 [Example 56] is in?
### Response middle segment

### Prompt Any idea which band CC(C)(c1cccc(CN2CCOCC2)c1)c1cc(Br)cc(NC(=O)c2cc3cc(NS(C)(=O)=O)ccc3s2)c1 [Example 50] is in?
### Response upper segment

### Prompt Any idea which band CC(C)Oc1cc(OC(F)(F)F)cc(C(C)(C)c2cc(Cl)cc(NC(=O)c3cc4cc(NS(C)(=O)=O)c(F)cc4s3)c2)c1 [Example 84] is in?
### Response lower segment

### Prompt Any idea which band CC(C)(C)OC(=O)N1CCN(Cc2cccc(C(C)(C)c3cc(Br)cc(NC(=O)c4cc5cc(NS(C)(=O)=O)ccc5s4)c3)c2)CC1 [Example 116] is in?
### Response lower segment

### Prompt Any idea which band CC(C)Oc1cc(OC(F)(F)F)cc(C(C)(C)c2cc(Cl)cc(NC(=O)c3cc4c(s3)CCN(NS(C)(=O)=O)C4)c2)c1 [Example 104] is in?
### Response upper segment

### Prompt Any idea which band CC(C)Oc1cc(OC(F)(F)F)cc(C(C)(C)c2cc(Cl)cc(NC(=O)c3cc(NS(C)(=O)=O)cs3)c2)c1 [Example 102] is in?
### Response upper segment

---

Test system: LNCaP
Assay: Cell growth inhibition assay, prostate cancer cell line LNCaP (medium with 10 ng/mL IL-6)
Type: cell-based
Details: Homo sapiens, medium supplemented with 10 ng/mL of IL-6, 10,000 cells/well
Recorded IC50 for the following molecules
I only need the number, in µM, no unit after it.

Known IC50 results, listed for orientation:
### Prompt For the molecule CC(C)(c1ccc(F)cc1)c1cccc(NC(=O)c2cc3cc(OC(F)(F)F)ccc3[nH]2)c1 , what IC50 is on record?
### Response 4.2

### Prompt For the molecule CS(=O)(=O)Nc1ccc2sc(C(=O)Nc3cc(Cl)cc(-c4cccs4)c3)cc2c1 , what IC50 is on record?
### Response 0.21

Turning now to a further molecule:
### Prompt For the molecule CS(=O)(=O)Nc1cc2cc(C(=O)Nc3cc(Cl)cc(-c4ccc(F)cc4F)c3)sc2cc1Cl , what IC50 is on record?
### Response 0.015
